Provenance of the data: patent US20020197702A1

Molecular target: T1, r-caspase-3 (His)6 (human, UniProt P42574 29-175; P42574 176-277)
T1 sequence 1: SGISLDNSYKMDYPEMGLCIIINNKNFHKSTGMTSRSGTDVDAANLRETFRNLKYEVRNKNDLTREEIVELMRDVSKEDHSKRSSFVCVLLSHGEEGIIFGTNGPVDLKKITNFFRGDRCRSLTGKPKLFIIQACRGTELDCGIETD
T1 sequence 2: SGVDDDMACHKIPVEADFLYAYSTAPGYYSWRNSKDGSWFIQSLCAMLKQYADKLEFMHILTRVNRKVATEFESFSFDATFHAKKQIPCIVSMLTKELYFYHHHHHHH
Assay: cell-based or functional assay
Ends that are not written are not given here. * marks the point of attachment. Cbz = O=C(OCc1ccccc1)*
ENDPOINT: IC50, inhibition of DEVD-AMC cleavage activity
Answer as a quantity: numeral, then unit.

Below: 2 binders and their reported IC50, inhibition of DEVD-AMC cleavage activity.
DEVD-aldehyde [DEVD-ald] | 1 nM
Cbz-Glu-Val-Asp-aldehyde (SMILES CC(C)[C@H](NC(=O)[C@H](CCC(=O)O)NC(=O)OCc1ccccc1)C(=O)N[C@H](C=O)CC(=O)O) [ZEVDald] | 24 nM

What does the record list as IC50, inhibition of DEVD-AMC cleavage activity for VEID-aldehyde [VEIDald] ?
32 nM

Item under review: DFLD-aldehyde [DFLD-ald] . Reported IC50, inhibition of DEVD-AMC cleavage activity?
1.1 nM
